Values were extracted from PubChem BioAssay AID256.

test system: CD2F1 mice, L1210 leukemia ip, survival T/C; assay: NCI In Vivo Anticancer Drug Screen. Data for tumor model L1210 Leukemia (intraperitoneal) in CD2F1 (CDF1) mice; conditions: endpoint: mean survival time; dose: 150.0 mg/kg/injection; schedule: Q01DX001 (ip); vehicle: saline; higher = longer survival
Toxic doses and inconclusive results are not listed.
Measurement Type: T/C

CC1CN(Br)C(=O)N(Br)C1=O (centres undefined)    100 % of control
C=C(CC)C1(C)C(=O)NC(=O)NC1=O    97 % of control
Nc1nc2c(c(=O)[nH]1)CN(c1ccc(Cl)cc1)C2    104 % of control
CN1CCN(CC(=O)N2c3ccccc3Sc3cc4ccccc4cc32)CC1    108 % of control
CCOC(=O)c1ncsc1NC(=O)NC    100 % of control
CC(=O)OC1CC2CC(O)(C(=O)CO)CC2C2CCC3=CC(=O)CC3C(C)(O)C12 (centres undefined)    96 % of control
CN1C=NN(C)C=N1    97 % of control
COC/C=N/N(C)C    96 % of control
CN(C)CC1CCCCCC(Br)C1O (centres undefined)    94 % of control
O=C1NC(=O)C(Br)C(=O)N1    100 % of control

Read the next record carefully.
For CC(O)C1NC(=S)N(c2ccccc2)C1=O (centres undefined) , what is its reported T/C?
103 % of control

----------
system: CD2F1 mice, L1210 leukemia ip, survival T/C; assay: NCI In Vivo Anticancer Drug Screen. Data for tumor model L1210 Leukemia (intraperitoneal) in CD2F1 (CDF1) mice; details: endpoint: mean survival time; dose: 12.5 mg/kg/injection; schedule: Q01DX005 (ip); vehicle: water; higher = longer survival
Toxic doses and inconclusive results are not listed.
Measurement Type: T/C

Take a look at these entries with their results.
Cc1cc(C(O)CNCCn2cnc3c2c(=O)n(C)c(=O)n3C)ccc1O (stereo not given)    103 % of control
NC(=O)c1ncn(C2OC(COP(=O)(O)O)C(O)C2O)c1N (stereo not given)    97 % of control
Cn1c(=O)c2c(nc(N3CCOCC3)n2CCCNCC(O)c2cc(O)cc(O)c2)n(C)c1=O (stereo not given)    100 % of control
Nc1ncnc2c1nc(Cl)n2C1OC2COP(=O)(O)OC2C1O (stereo not given)    96 % of control
CCCc1cc(C(C)=O)c[n+](C2OC(COC(C)=O)C(OC(C)=O)C(OC(C)=O)C2OC(C)=O)c1 (stereo not given)    104 % of control

For Nc1ccn(C2OC3COC2C3O)c(=O)n1 (stereo not given) , what is its reported T/C?
101 % of control

For CCCC(=O)OC1C2OP(=O)(O)OCC2OC1n1c(=S)[nH]c2c(N)ncnc21 (stereo not given) , what is its reported T/C?
97 % of control

For C[CH2][Sn]1([CH2]C)[O]C2C(CO)OC(n3ccc(N)nc3=O)C2[O]1 (stereo not given) , what is its reported T/C?
105 % of control

For CCOC(=O)Nc1cc(Cl)c2nnn(C(=O)OCC)c2n1 , what is its reported T/C?
105 % of control

For COC1OC(CO)C(n2cnc3c2c(=O)n(C)c(=O)n3C)C=C1NC(C)=O (stereo not given) , what is its reported T/C?
88 % of control
